- target.under.test: Torsin-1A-interacting protein 2 (Homo sapiens) (UniProt Q8NFQ8)
- Sequence (Q8NFQ8 whole entry, looked up): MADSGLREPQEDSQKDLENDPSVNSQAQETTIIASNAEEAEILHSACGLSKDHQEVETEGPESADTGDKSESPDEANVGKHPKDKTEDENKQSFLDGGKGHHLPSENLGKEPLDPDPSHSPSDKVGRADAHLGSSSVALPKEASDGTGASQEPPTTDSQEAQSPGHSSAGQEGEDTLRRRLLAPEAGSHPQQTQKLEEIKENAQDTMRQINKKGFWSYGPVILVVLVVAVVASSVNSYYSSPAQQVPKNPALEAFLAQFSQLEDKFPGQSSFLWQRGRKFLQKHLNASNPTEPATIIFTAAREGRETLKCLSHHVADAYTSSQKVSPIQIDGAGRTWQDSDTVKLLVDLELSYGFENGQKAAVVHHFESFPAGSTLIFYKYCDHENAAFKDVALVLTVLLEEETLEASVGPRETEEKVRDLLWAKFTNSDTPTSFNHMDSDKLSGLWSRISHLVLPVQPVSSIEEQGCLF
- procedure.summary: small molecules binding lysate-expressed LULL1 – cell lysate, human LULL1 lysate, 635/667 nm fluorescence, primary screen (AID 1092);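 also: probe is lysate of COS7 cells overexpressing human LULL1; score merges per-feature 667 nm fluorescence with signal-to-noise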
- condition.notes: small-molecule microarray, hLULL1 lysate binding, 635 nm fluorescence; higher = more signal
Quick rule: composite z-score of at least 3 means Condition met, below that means Condition not met.

Take a look at these entries with their results.
COc1ccc(C(=O)Nc2cccc(CN3C(=O)[C@@]4(O[C@@H](CC(=O)N5Cc6ccccc6C[C@H]5CO)[C@H]([Si](C)(C)c5ccc(OC)cc5)[C@H]4C)c4ccccc43)c2)cc1 = Condition not met
COC(=O)[C@@]1(Cc2ccccc2)[C@H]2c3cc(C(=O)N(C)C)n(Cc4cc(F)c(F)c(F)c4)c3C[C@H]2CN1C(=O)c1ccccc1 = Condition met
COc1ccc(C#Cc2ccc3c(c2)[C@]2(C(=O)N3)[C@H](C(=O)N3CCN(c4ncccn4)CC3)[C@H]3C(=O)O[C@H](c4ccccc4)[C@H](c4ccccc4)N3[C@@H]2c2ccc(O)cc2)cc1 = Condition not met

Prompt line: Given the entry COCCOC(=O)N1C(=O)[C@@]2(c3cc(C#CCCO)ccc31)[C@H](c1ccc(O)cc1)N1[C@H](c3ccccc3)[C@H](c3ccccc3)OC(=O)[C@H]1[C@@H]2C(=O)N1CCCCCCC1 , answer whether its composite z-score meets or surpasses 3.
Response line: Condition not met

Prompt line: Tell me whether composite z-score is at least 3 here: OCCCc1cc[n+](Cc2cccc(OC(F)(F)F)c2)cc1
Response line: Condition met

Prompt line: Assess whether reported composite z-score for Cc1ccc(S(=O)(=O)N2CC(C(=O)O)=CCC2c2ccccc2)cc1 (stereo not given) sits at 3 or higher.
Response line: Condition not met

====

z-score reference
- target.under.test: NADPH oxidase 2 (Homo sapiens)
- procedure.summary: compounds shifting NOX2 Amplex Red fluorescence – cell-based, HEK293-NOX2, PMA-stimulated, NOX inhibitor project, primary screen (AID 1159); also: test concentration not given here
- condition.notes: 45 min, higher = more signal, called active from +8 up or from −8 down
Give the figure by itself; no unit, no explanation.

Known z-score results, listed for orientation:
C[N+](C)(C)CCCC[C@@H]1NC(=O)[C@H]2C[C@@H](C(=O)O)[C@@H](c3cccc(OCCO)c3)N2C1=O = 0.114
C=CCC(OC(C)=O)[C@@H]1[C@@H](N(Cc2ccc(-c3cccc(C(F)(F)F)c3)o2)C(=O)Cc2ccc(OC)cc2)c2cc(OCCCO)ccc2N1C(=O)Cc1ccc(OC)cc1 (some centres not stated) = -2.27

The measured z-score associated with CN1C(=O)C2C(C1=O)C1C=C(c3ccc(CO)cc3)C2C(C2CC2)N1Cc1cc2c(cc1Br)OCO2 (configuration not stated) reads -1.18

The value of z-score measured for the molecule [N-]=[N+]=NCc1ccccc1[C@H]1OC(c2ccc(OCCCO)cc2)=N[C@@]1(Cc1ccccc1)C(=O)O turned out to be 0.861

z-score reading for COC(=O)[C@@]1(Cc2ccc(OC)cc2)[C@H]2c3cc(C(=O)N4CCCC4)n(CCc4ccccn4)c3C[C@H]2CN1C(=O)c1ccccc1 : 0.48

COCCOC(=O)N1C(=O)[C@@]2(c3ccccc31)[C@H](C(=O)N1CCCCCCC1)[C@H]1C(=O)O[C@H](c3ccccc3)[C@H](c3ccccc3)N1[C@@H]2c1ccccc1OCCO yielded z-score of 0.966

Reported z-score of O=C1OCC=C[C@H]2OC34C=CCN(CCN5CCOCC5)C(=O)[C@H]3N(CCCCCCO)C(=O)[C@@H]4[C@@H]12 (some centres not stated) : 1.51

====

- target.under.test: NADPH oxidase 2 (Homo sapiens)
- procedure.summary: compounds shifting NOX2 Amplex Red fluorescence – cell-based, HEK293-NOX2, PMA-stimulated, NOX inhibitor project, primary screen (AID 1159); also: test concentration not given here
- condition.notes: 45 min, higher = more signal, called active from +8 up or from −8 down
The entries below come with measured z-score values attached.
Please give the numeric answer without any surrounding text.

Example results:
COC(=O)[C@@]1(Cc2ccc(F)cc2)[C@H]2c3cc(C(=O)N(C)C)n(Cc4ccccn4)c3C[C@H]2CN1C(=O)c1ccccc1 = 0.467
[N-]=[N+]=NCc1ccccc1[C@@H]1OC(c2ccc(OCCCO)cc2)=N[C@]1(Cc1ccccc1)C(=O)O = 0.174
COCCOC(=O)N1C(=O)[C@@]2(c3cc(C#Cc4ccc(OC)cc4)ccc31)[C@H](C(N)=O)[C@H]1C(=O)O[C@H](c3ccccc3)[C@H](c3ccccc3)N1[C@@H]2c1ccc(O)cc1 = -0.0615
O=C(NCC(O)CO)[C@@]1(Cc2ccccc2)N=C(c2ccc(OCCCO)cc2)O[C@H]1c1ccccc1 (stereo partly drawn) = -0.513
C=CCNC(=O)[C@@H]1[C@H]2C(=O)O[C@H](c3ccccc3)[C@H](c3ccccc3)N2[C@H](c2ccccc2OCCO)[C@@]12C(=O)N(C(=O)OCCOC)c1ccc(C#CCC(C(=O)OC)C(=O)OC)cc12 = 0.793
C=C(C(=O)CC[C@@H](OC(=O)c1cccnc1)c1ccc(OCCO)cc1)C(C)C = -4.23
CCCC[C@H]1OB(O)C[C@H]2C1=C(COc1ccccc1)C[C@H]1C(=O)N(Cc3ccccc3)C(=O)[C@H]12 = -0.0336
CC(c1ccccc1)C(O)C1C=CC2C(=O)N(c3ccccc3)C(=O)C2N1Nc1ccccc1F (stereo not drawn) = -0.652

Param item: C=CCOC(=O)[C@H]1[C@@H]2C(=O)O[C@@H](c3ccccc3)[C@@H](c3ccccc3)N2[C@@H](c2ccc(OCCOC(=O)[C@@H]3C[C@@H]4C(=O)NCC(=O)N4[C@@H]3c3ccc(O)cc3)cc2)[C@]12C(=O)Nc1ccc(I)cc12 ; param system: NADPH oxidase 2 (Homo sapiens); output z-score: 1.57

Test item C=CCC(OC(C)=O)[C@@H]1[C@@H](N(Cc2cc3ccccc3o2)C(=O)c2cccc3ccccc23)c2cc(OCCCO)ccc2N1C(=O)Cc1ccc(OC)cc1 (stereo partly drawn) ; NADPH oxidase 2 (Homo sapiens); reported z-score was -1.79

Given the molecule C=C[C@H](C)[C@H](OC(=O)Nc1ccc(OC)cc1)c1ccc(O)c2ccccc12 and test system NADPH oxidase 2 (Homo sapiens), the measured z-score is -5.39

The recorded z-score with NADPH oxidase 2 (Homo sapiens) for O=C1O[C@@H](c2ccccc2)[C@@H](c2ccccc2)N2[C@@H](c3ccc(O)cc3)[C@]3(C(=O)Nc4ccc(C#CCCO)cc43)[C@@H](C(=O)N3CCCCCCC3)[C@H]12 was 1.15

Entry COCCCNC(=O)[C@]1(Cc2ccccc2N=[N+]=[N-])N=C(c2ccc(OCCCO)cc2)O[C@@H]1c1ccccc1CN=[N+]=[N-] ; assay system NADPH oxidase 2 (Homo sapiens); z-score recorded at -0.888

====

- procedure.summary: blood-stage malaria parasite viability loss – strain 3D7, DAPI fluorescence, 100 nL, primary screen (AID 1184);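 also: parasites grown inside human red blood cells in medium with human serum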
- condition.notes: P. falciparum 3D7 growth, 3 d, higher = more signal
Label scheme for z-score: lower than 0.2 is False, 0.2 and above is True.

Prompt line: Quick check: does COCCOC(=O)N1C(=O)[C@@]2(c3ccccc31)[C@H](c1ccc(O)cc1)N1[C@H](c3ccccc3)[C@H](c3ccccc3)OC(=O)[C@H]1[C@@H]2C(N)=O have z-score greater than or equal to 0.2?
Response line: True

Prompt line: Is the recorded value of z-score equal to or greater than 0.2 for this compound? Oc1ccc2cc[n+](Cc3cccc(OC(F)(F)F)c3)cc2c1
Response line: True

Prompt line: Could you verify whether the entry C=CCC(OC(C)=O)[C@@H]1[C@@H](N(Cc2ccc(-c3ccccc3)cc2)C(=O)c2ccc(C)cc2)c2cc(OCCCO)ccc2N1C(=O)Cc1ccc(OC)cc1 (stereo partly drawn) shows z-score of no less than 0.2?
Response line: False

Prompt line: Check if z-score >= 0.2 (inclusive). Item: NC(=O)[C@]1(Cc2ccccc2)N=C(c2ccc(OCCCO)cc2)O[C@@H]1c1ccccc1
Response line: False

Prompt line: Item CCN(CC)c1ccc(N2CC=CC34O[C@@H]5/C=C\CCCOC(=O)C5[C@H]3C(=O)N(CCCO)[C@@H]4C2=O)cc1 (stereo partly drawn) with z-score of 0.2 or above?
Response line: True

====

- procedure.summary: budding yeast growth modifiers under rapamycin – strain BY4716, OD600, 96 h, primary screen (AID 1091); also: test concentration not given here
- condition.notes: S. cerevisiae BY4716 + rapamycin, higher = more signal, called active from +8 up or from −8 down
Activity calls are given as the source filed them.
readout.kind: z-score

Given item CC(C)(C)OC(=O)CC[C@@]1(C(N)=O)N=C(c2ccc(OCCCO)cc2)O[C@@H]1c1ccccc1N=[N+]=[N-] , the value recorded as its z-score is -0.579 (inactive)

The measured z-score associated with Cc1ccc(N2C(=O)c3ccccc3[C@](C)(C(=O)NCCN3CCOCC3)[C@@H]2c2ccc(CO)cc2)nc1 reads -0.324 (inactive)

# compound CCCNC(=O)[C@@]1(C)c2ccccc2C(=O)N(Cc2ccc(OC(F)(F)F)cc2)[C@H]1c1ccc(CO)cc1 ; its z-score = -0.548 (inactive)

Lookup result for CO[C@H]1O[C@H](CO)[C@@H](OC(=O)Nc2cccc(F)c2)[C@H](OC(=O)Nc2ccccc2-c2ccccc2)[C@@H]1OC(=O)Nc1ccccc1-c1ccccc1 ; measured z-score: -1.23 (inactive)
